Data origin, for the record: patent US10053468B2

# target-under-test: RORγt (Homo sapiens)
# Sequence (P51449 1-497 isoform P51449-2, species assumed): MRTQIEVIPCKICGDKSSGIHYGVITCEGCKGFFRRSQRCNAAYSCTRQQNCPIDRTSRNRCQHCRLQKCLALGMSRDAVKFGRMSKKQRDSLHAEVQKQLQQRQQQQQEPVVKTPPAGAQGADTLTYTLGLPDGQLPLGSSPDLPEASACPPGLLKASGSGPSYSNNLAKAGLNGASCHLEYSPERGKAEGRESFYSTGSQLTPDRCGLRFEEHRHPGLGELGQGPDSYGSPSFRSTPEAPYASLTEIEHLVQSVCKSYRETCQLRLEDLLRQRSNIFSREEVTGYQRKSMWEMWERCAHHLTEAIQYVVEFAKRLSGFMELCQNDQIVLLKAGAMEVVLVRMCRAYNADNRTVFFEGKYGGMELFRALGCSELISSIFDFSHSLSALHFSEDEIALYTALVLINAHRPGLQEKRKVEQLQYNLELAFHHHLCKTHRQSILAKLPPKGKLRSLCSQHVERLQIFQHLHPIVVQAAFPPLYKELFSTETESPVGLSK
# assay-notes: Jurkat reporter test (human IL-17 ROR response element luciferase, RORγt vector)
# Format: cell-based
# test-parameters: Jurkat, read-out: Luminescence level inhibitory rate at test compound 3 μM (%)
readout-name: inhibition at 3 µM

Consider the following illustrative entries.
CCOc1ccc2c(c1)CCN(C(=O)NCCCC(=O)O)[C@H]2C(=O)Nc1cc(F)c([Si](C)(C)C)c(F)c1 :: 100%
CCOc1ccc2c(c1)CCN(C(=O)N1CC(CC(=O)O)C1)[C@H]2C(=O)Nc1cc(F)c([Si](C)(C)C)c(F)c1 :: 101%

Problem: Give the observed inhibition at 3 µM of `COc1ccc2c(c1)CCN(C(=O)Cc1cc(O)no1)[C@H]2C(=O)Nc1ccc([Si](C)(C)C)c(F)c1` for RORγt (Homo sapiens).
Result: 100%

Problem: Give the observed inhibition at 3 µM of `COCc1ccc2c(c1)CCN(C(=O)CCCC(=O)O)[C@H]2C(=O)Nc1cc(F)c([Si](C)(C)C)c(F)c1` for RORγt (Homo sapiens).
Result: 104%

Problem: Give the observed inhibition at 3 µM of `CCOc1ccc2c(c1)CCN(C(=O)CCCCC(=O)O)[C@H]2C(=O)Nc1ccc([Si](C)(C)C)c(F)c1` for RORγt (Homo sapiens).
Result: 101%

Problem: Give the observed inhibition at 3 µM of `CC[Si](C)(C)c1c(F)cc(NC(=O)[C@H]2c3ccc(OC)cc3CCN2C(=O)CCCC(=O)O)cc1F` for RORγt (Homo sapiens).
Result: 101%

Problem: Give the observed inhibition at 3 µM of `COc1ccc2c(n1)CCN(C(=O)c1cc(O)no1)[C@H]2C(=O)Nc1ccc([Si](C)(C)C)c(F)c1` for RORγt (Homo sapiens).
Result: 102%

Problem: Give the observed inhibition at 3 µM of `COc1ccc2c(c1)CCN(C(=O)[C@@H](O)CCC(=O)O)[C@H]2C(=O)Nc1cc(F)c([Si](C)(C)C)c(F)c1` for RORγt (Homo sapiens).
Result: 100%

Problem: Give the observed inhibition at 3 µM of `COCc1ccc2c(c1)CCN(C(=O)Cc1cc(O)no1)[C@H]2C(=O)Nc1ccc([Si](C)(C)C)c(F)c1` for RORγt (Homo sapiens).
Result: 103%
